Parameter: TGI. Scope: all listed entries.
- System: DU-145 prostate
- Test Summary: NCI tumour cell line growth inhibition, 48 h

Study these solved cases before continuing.
Compound: Cc1cc2c(c(=O)o1)C1=S(SC(c3ccccc3)=C1)S2 (stereo unspecified)
Readout Value: > 100 µM
//
Compound: Cc1nc(N(C(C)C)C(C)C)c(C(C)C)o1
Readout Value: > 100 µM
//
Compound: C[C@@H](NC(=O)c1ccc(F)cc1)c1ccc2c(c1)CCN2C(=O)C1CCOCC1
Readout Value: > 100 µM
//
Compound: COc1ccc(C2CC(c3ccc(N(C)C)cc3)=NN2c2ccc(S(N)(=O)=O)cc2)cc1 (stereo unspecified)
Readout Value: > 100 µM
//
Compound: C=CC[N+]1(CC)CCN=C1CCCCCCCCCCCCCCCCC (stereo unspecified)
Readout Value: 2.02 µM

Now let's try a different one.
I am curious: what TGI value has been reported for NC(=O)CC(N)c1nn[nH]n1 (stereo unspecified) ?
> 100 µM

====

- System: RPMI-8226 leukemia
- Test Summary: NCI tumour cell line growth inhibition, 48 h
Let's look at some compounds and their measured GI50.

Reference set, count: 4
Sample Smiles: Cc1ccc(Cl)cc1-n1c(C)nc2c(cnn2-c2ccnc3c(C(F)(F)F)cccc23)c1=O
GI50: > 100000 nM

Sample Smiles: O=S(=O)(NCCCNc1cc(-c2cn(-c3ccccc3)nc2-c2cccc(O)c2)ccn1)c1ccc(F)cc1
GI50: 2230 nM

Sample Smiles: CC(C)N(Cc1ccc(F)cc1)c1ccc(CO)c(Cl)c1
GI50: 1460 nM

Sample Smiles: CSC1=Nc2c(c(C)c(-c3ccccc3)n2COC(CO)CO)C2=NC(=O)CN12
GI50: > 100000 nM

Note: attention shifts to another entry.
Query the reported GI50 for RPMI-8226 leukemia; item: `COc1cc(C(=O)/C=C/c2c(C(F)(F)F)nc3ccccn23)cc(OC)c1OC`
2910 nM

====

- Test system: SNB-75 CNS
- Test Summary: NCI tumour cell line growth inhibition, 48 h
Reported TGI values are given for each entry in this list.
Just the number in µM, nothing appended.

Sample Smiles: N#Cc1cc2c(cc1Cl)Sc1nnc(Nc3cccc4ccccc34)n1S2(=O)=O
Unit String: µM
Readout Value: 18.2
//
Sample Smiles: CC(=O)N(O)c1ccc(/C=C/c2ccccc2)cc1
Unit String: µM
Readout Value: 4.59
//
Sample Smiles: COc1cc(C(=O)/C=C/c2c(C(F)(F)F)nc3ccccn23)cc(OC)c1OC
Unit String: µM
Readout Value: 3.44

We next turn to a different molecule, shown below.
Need TGI, item `O=[N+]([O-])/C=C/c1ccc(Cl)cc1Cl`
34.8

====

- Tested on: HS 578T breast
- Test Summary: NCI tumour cell line growth inhibition, 48 h
Note to self: values exactly at 10 µM are Met. So TGI at or above 10 µM is Met, below is Not met.

Given the entry `COC1=C(OC)[C@]2(OC)c3c(O)c(OC)c4c(c3O[C@@]23O[C@@H](c2ccccc2)CC=C3C1=O)[C@@H](OC)C[C@H](c1ccccc1)O4` , answer whether its TGI meets or surpasses 10 µM.
Not met

Determine whether this molecule has TGI no lower than 10 µM: C=CCNC(=O)CN(CC(=O)O)C1CCCCC1N(CC(=O)O)CC(=O)O (stereo unspecified)
Met

Quick check: does `CC(=O)NCCCCN(CCCNC(C)=O)C(=O)OCc1ccccc1` have TGI greater than or equal to 10 µM?
Met

Check the entry C=C(CCC=C(C)C)C1CC=C(C)CC1 (stereo unspecified) : does TGI equal or exceed 10 µM?
Met

// inclusive: TGI at least 10 µM? input: `COc1ccc2c(c1)C(=O)c1c-2c(=O)n(CCCN(C)C)c2cc(OC)c(OC)cc12`
Met

Threshold query (TGI >= 10 µM) on `O=C1/C(=C/c2ccccc2[N+](=O)[O-])COc2ccc(O)cc21`
Met

In plain terms: is recorded TGI at least 10 µM for `COc1cc(-c2ncn(/C=C\c3nnco3)n2)cc(C(F)(F)F)c1` ?
Met

Say whether `C[C@H]1CN(C2COC2)CCN1c1ccc(Nc2cc(-c3ccnc(N4CCn5c(cc6c5CC(C)(C)C6)C4=O)c3CO)cn(C)c2=O)nc1` shows TGI of 10 µM or more.
Met

Item `COC1=C(OC)C(=O)C(CCCCCCCCCCO)=C(C)C1=O` with TGI of 10 µM or above?
Met

Reported TGI at or above 10 µM? `CCCCN(C)C(=O)C1=C(C)NC(C)=C(C(=O)N(C)CCCC)C1`
Met

Does the molecule `COc1ccc2nc3cc(Cl)ccc3c(N3CCN(c4ccnc(N5CCN(C)CC5)n4)CC3)c2c1` have recorded TGI that is 10 µM or more?
Not met

Say whether `NCc1ccc(-c2nc(-c3ccc(Cl)c(O)c3)c(-c3ccncc3)[nH]2)cc1` shows TGI of 10 µM or more.
Met

Record C=C[C@]1(O[Si](C)(C)C)C[C@@]2(C(=O)OCC)C(O)C(=O)N3CCc4cc(OC)c(OC)cc4[C@]312 (stereo partly specified) ; criterion: TGI no lower than 10 µM. Met?
Met

====

# TGI per entry
- Test system: RXF-631 renal
- Test Summary: NCI tumour cell line growth inhibition, 48 h

// below: answered compounds
Compound: COc1ccc(/C=C/c2cc(OC)c(OCc3ccccc3)c(OC)c2)cc1
TGI: > 100 µM

Compound: c1ccc(CN2COc3c(ccc4c5c(ccc34)CN(Cc3ccccc3)CO5)C2)cc1
TGI: > 100 µM

# input for lookup
What TGI appears in the records for this compound with RXF-631 renal? CSc1ccc2c(cc1=O)C(NC(=O)c1ccc(C#N)cc1)CCc1cc(O)c(O)c(O)c1-2 (stereo not drawn)
> 100 µM

====

- System: HL-60(TB) leukemia
- Test Summary: NCI tumour cell line growth inhibition, 48 h
The reader will find reported TGI values listed item by item below.
Numbers only; they are read as µM.

Below, each entry is followed by its recorded TGI result.
Compound: CN(C)CCCn1c2c(c3cc4c(cc3c1=O)OCO4)C(=O)c1ccccc1-2
Readout Value: 20.4

Compound: CCC(C)N1CN(c2ccccc2)C2(CCN(CCCSc3ccc(F)cc3)CC2)C1=O (stereo not drawn)
Readout Value: 17.8

Compound: CC1SC(c2ccc(Cl)cc2)N(CCc2cccs2)C1=O (stereo not drawn)
Readout Value: 8.73

Compound: COc1cc(-c2ncn(/C=C\c3nnco3)n2)cc(C(F)(F)F)c1
Readout Value: 13.1

// lookup TGI for `COc1ccc(OC)c(Cc2cnc3nc(N)nc(N)c3c2C)c1`
18.7

Please look up its TGI: `COC1=C(OC)C(=O)C(CCCCCCCCCCO)=C(C)C1=O`
11.5

Entry `O=C1C=C(C2=C(C3=CC(=O)c4ccccc4C3=O)C(=O)c3ccccc3C2=O)C(=O)c2ccccc21` : reported TGI = ?
3.68

Item under review: `COC1=C(OC)[C@]2(OC)c3c(O)c(OC)c4c(c3O[C@@]23O[C@@H](c2ccccc2)CC=C3C1=O)[C@@H](OC)C[C@H](c1ccccc1)O4` . Reported TGI?
1.4

====

- Test system: NCI-H460 lung
- Test Summary: NCI tumour cell line growth inhibition, 48 h
// no (0) strictly below 10 µM in TGI; yes (1) otherwise

Compound: Cc1ccc(NC(=O)/C(C#N)=C/c2ccccc2)c(C)c1
Experimental Target: NCI-H460 lung
Classification: yes (1)

Compound: CC1CCN(CCOc2ccc(CNc3ccc4nc(CCC5CCCCC5)[nH]c4c3)cc2)CC1
Experimental Target: NCI-H460 lung
Classification: no (0)

Compound: c1ccc(C2CCCCC2)c(OCCCCCN2CCNCC2)c1
Experimental Target: NCI-H460 lung
Classification: no (0)

Compound: Cn1nc(-c2ccccc2)c(C(=O)/C=C/c2ccc(Cl)cc2)c(N2CCOCC2)c1=O
Experimental Target: NCI-H460 lung
Classification: yes (1)

Compound: Nc1c(Cl)cc(-c2nc3ccccc3s2)cc1Cl
Experimental Target: NCI-H460 lung
Classification: yes (1)

Compound: c1ccc(CN2COc3c(ccc4c5c(ccc34)CN(Cc3ccccc3)CO5)C2)cc1
Experimental Target: NCI-H460 lung
Classification: yes (1)

Compound: N#Cc1c(-c2ccccc2)cc(-c2ccccc2)n(C2OCC(O)C(O)C2O)c1=S (stereo not given)
Experimental Target: NCI-H460 lung
Classification: yes (1)

Compound: CC1CCC2C(CN(CC3=C(C(F)(F)F)OC4OC5(C)CCC6C(C)CCC3C46OO5)CC3=C(C(F)(F)F)OC4OC5(C)CCC6C(C)CCC3C46OO5)=C(C(F)(F)F)OC3OC4(C)CCC1C32OO4 (stereo not given)
Experimental Target: NCI-H460 lung
Classification: yes (1)

We now examine a further compound.
TGI >= 10 µM for Cc1cc2c(c(=O)o1)C1=S(SC(c3ccccc3)=C1)S2 (stereo not given) ?
yes (1)
